test_system: Papain (Carica papaya) (UniProt P00784)
Sequence (P00784 whole entry, looked up): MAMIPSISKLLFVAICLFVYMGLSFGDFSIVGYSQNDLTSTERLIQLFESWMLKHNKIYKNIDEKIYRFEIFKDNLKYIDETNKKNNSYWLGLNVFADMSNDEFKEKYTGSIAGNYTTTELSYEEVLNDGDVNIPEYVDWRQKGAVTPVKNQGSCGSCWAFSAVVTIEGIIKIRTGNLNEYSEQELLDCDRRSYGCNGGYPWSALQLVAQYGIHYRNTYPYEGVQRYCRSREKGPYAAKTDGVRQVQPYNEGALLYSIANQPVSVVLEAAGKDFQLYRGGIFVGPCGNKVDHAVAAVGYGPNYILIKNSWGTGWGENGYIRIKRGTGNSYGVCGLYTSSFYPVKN
measurement_protocol: Primary qHTS assay for inhibitors of the protease papain (AID 1645873);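 further: papain turnover of Z-FR-AMC read as the AMC fluorescence gain over 10 min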
experimental_conditions: papain Z-FR-AMC cleavage, AMC fluorescence; series mostly up to 49.8 µM
Records with an inconclusive call do not appear. Active and inactive are the calls of the source. The call rests on the fitted dose curve; in most records, active means well fitted inhibition curve with a large enough effect; inconclusive means small, poorly fitted or top-dose-only effect; inactive means no such curve, though single readings can be large or run the other way.

[
  {
    "compound": "O=C(c1ccc(Cl)cc1)N1CCN(c2ccc([N+](=O)[O-])c3ncccc23)CC1",
    "test_system": "Papain (Carica papaya) (UniProt P00784)",
    "outcome": "inactive"
  },
  {
    "compound": "CN[C@H](CC(C)C)C(=O)N[C@H]1C(=O)N[C@@H](CC(N)=O)C(=O)N[C@H]2C(=O)N[C@H]3C(=O)N[C@H](C(=O)N[C@H](C(=O)O)c4cc(O)cc(O)c4-c4cc3ccc4O)[C@H](O)c3ccc(c(Cl)c3)Oc3cc2cc(c3O[C@@H]2O[C@H](CO)[C@@H](O)[C@H](O)[C@H]2O[C@H]2C[C@](C)(N)[C@H](O)[C@H](C)O2)Oc2ccc(cc2Cl)[C@H]1O",
    "test_system": "Papain (Carica papaya) (UniProt P00784)",
    "outcome": "inactive"
  },
  {
    "compound": "CC(C)(C=O)Cc1cc(C(C)(C)C)c(O)c(C(C)(C)C)c1",
    "test_system": "Papain (Carica papaya) (UniProt P00784)",
    "outcome": "inactive"
  },
  {
    "compound": "O=S(=O)(c1cccc2c(I)cccc12)N1CCCNCC1",
    "test_system": "Papain (Carica papaya) (UniProt P00784)",
    "outcome": "inactive"
  },
  {
    "compound": "CCCC(CCC)C(=O)OC1CC2CCC(C1)[N+]2(C)C (configuration not stated)",
    "test_system": "Papain (Carica papaya) (UniProt P00784)",
    "outcome": "inactive"
  },
  {
    "compound": "O=C(Nc1ccncc1)c1cc([N+](=O)[O-])ccc1Cl",
    "test_system": "Papain (Carica papaya) (UniProt P00784)",
    "outcome": "inactive"
  },
  {
    "compound": "CN1C2CCC1CC(OC(=O)C(O)c1ccccc1)C2 (configuration not stated)",
    "test_system": "Papain (Carica papaya) (UniProt P00784)",
    "outcome": "inactive"
  },
  {
    "compound": "OC[C@H]1O[C@@H](n2cnc3c(NC4CCCCC4)ncnc32)[C@H](O)[C@@H]1O",
    "test_system": "Papain (Carica papaya) (UniProt P00784)",
    "outcome": "inactive"
  },
  {
    "compound": "Oc1cc2c(cc1O)CN(C(=S)NCCc1ccc(Cl)cc1)CCC2",
    "test_system": "Papain (Carica papaya) (UniProt P00784)",
    "outcome": "inactive"
  },
  {
    "compound": "CC[C@@H](C)[C@H]1O[C@]2(CC[C@H]1C)C[C@@H]1C[C@@H](CC=C(C)[C@@H](O[C@H]3C[C@H](OC)[C@@H](O[C@H]4C[C@H](OC)[C@@H](O)[C@H](C)O4)[C@H](C)O3)[C@@H](C)C=CC=C3CO[C@@H]4[C@H](O)C(C)=C[C@@H](C(=O)O1)[C@]34O)O2",
    "test_system": "Papain (Carica papaya) (UniProt P00784)",
    "outcome": "inactive"
  },
  {
    "compound": "O=C(CCSCc1ccco1)NNC(=O)N1Cc2ccccc2Oc2ccc(Cl)cc21",
    "test_system": "Papain (Carica papaya) (UniProt P00784)",
    "outcome": "inactive"
  },
  {
    "compound": "O=[N+]([O-])c1ccc(CNc2nc(NCc3cccc(C(F)(F)F)c3)nc3nc[nH]c23)cc1",
    "test_system": "Papain (Carica papaya) (UniProt P00784)",
    "outcome": "inactive"
  },
  {
    "compound": "O=C1NC(O)=NC1(c1ccccc1)c1ccccc1",
    "test_system": "Papain (Carica papaya) (UniProt P00784)",
    "outcome": "inactive"
  },
  {
    "compound": "CCCCCCCCCCCCCCCCCCN(CCCCCCCCCCCCCCCCCC)CCCN(CCO)CCO",
    "test_system": "Papain (Carica papaya) (UniProt P00784)",
    "outcome": "inactive"
  },
  {
    "compound": "CC(N)C(=O)OC(C)(C)Cc1ccc(Cl)cc1 (configuration not stated)",
    "test_system": "Papain (Carica papaya) (UniProt P00784)",
    "outcome": "inactive"
  },
  {
    "compound": "NC[C@H]1O[C@@H](n2cnc3c(N)ncnc32)[C@H](O)[C@@H]1O",
    "test_system": "Papain (Carica papaya) (UniProt P00784)",
    "outcome": "inactive"
  },
  {
    "compound": "CC(C)Cc1ccc([C@H](C)C(=O)O)cc1",
    "test_system": "Papain (Carica papaya) (UniProt P00784)",
    "outcome": "inactive"
  }
]
